System: cool season plant species
method-summary: B2 Post-emergence efficacy Test 2, cool season plant species
Assay type: in vivo
condition-context: KCHSC, 500 g/Ha, 15 days after application, 0=no damage, 100=total kill

structure-string: Cc1nn(C)c(=O)c(-c2c(F)ccc(Cl)c2CCc2ccc(F)cc2)c1OC(=O)C(C)C
Herbicidal activity (0-100 scale) KCHSC: 70

structure-string: Cc1nn(C)c(=O)c(-c2c(F)ccc(Cl)c2CCc2ccccc2C(F)(F)F)c1O
Herbicidal activity (0-100 scale) KCHSC: 20

structure-string: Cc1nn(C)c(=O)c(-c2c(F)ccc(Cl)c2CCc2ccc(Cl)cc2)c1OC(=O)C(C)C
Herbicidal activity (0-100 scale) KCHSC: 60

structure-string: Cc1nn(C)c(=O)c(-c2c(F)ccc(Cl)c2CCc2ccc(F)cc2)c1O
Herbicidal activity (0-100 scale) KCHSC: 80

structure-string: Cc1nn(C)c(=O)c(-c2c(F)ccc(Cl)c2CCc2ccc(C#N)cc2)c1O
Herbicidal activity (0-100 scale) KCHSC: 20

----------
Test system: cool season plant species
method-summary: B2 Post-emergence efficacy Test 2, cool season plant species
Format: in vivo
condition-context: POLCO, 500 g/Ha, 15 days after application, 0=no damage, 100=total kill
# Herbicidal activity (0-100 scale) POLCO annotations

structure-string: Cc1nn(C)c(=O)c(-c2c(F)ccc(Cl)c2CCc2ccc(C#N)cc2)c1O
assay-system: cool season plant species
Herbicidal activity (0-100 scale) POLCO: 100
//
structure-string: Cc1nn(C)c(=O)c(-c2c(F)ccc(Cl)c2CCc2ccc(F)cc2)c1OC(=O)C(C)C
assay-system: cool season plant species
Herbicidal activity (0-100 scale) POLCO: 90
//
structure-string: Cc1nn(C)c(=O)c(-c2c(F)ccc(Cl)c2CCc2ccc(F)cc2)c1O
assay-system: cool season plant species
Herbicidal activity (0-100 scale) POLCO: 90
//
structure-string: Cc1nn(C)c(=O)c(-c2c(F)ccc(Cl)c2CCc2ccccc2C(F)(F)F)c1O
assay-system: cool season plant species
Herbicidal activity (0-100 scale) POLCO: 100

----------
# Herbicidal activity (0-100 scale) ALOMY annotations
Tested on: cool season plant species
method-summary: B2 Post-emergence efficacy Test 2, cool season plant species
Assay type: in vivo
condition-context: ALOMY, 500 g/Ha, 15 days after application, 0=no damage, 100=total kill

molecule: Cc1nn(C)c(=O)c(-c2c(F)ccc(Cl)c2CCc2ccc(F)cc2)c1OC(=O)C(C)C [Compound 1.125]
assay-system: cool season plant species
Herbicidal activity (0-100 scale) ALOMY: 40
--
molecule: Cc1nn(C)c(=O)c(-c2c(F)ccc(Cl)c2CCc2ccccc2C(F)(F)F)c1O [Compound 1.066]
assay-system: cool season plant species
Herbicidal activity (0-100 scale) ALOMY: 90
--
molecule: Cc1nn(C)c(=O)c(-c2c(F)ccc(Cl)c2CCc2ccc(Cl)cc2)c1OC(=O)C(C)C [Compound 1.089]
assay-system: cool season plant species
Herbicidal activity (0-100 scale) ALOMY: 90
--
molecule: Cc1nn(C)c(=O)c(-c2c(F)ccc(Cl)c2CCc2ccc(C#N)cc2)c1O [Compound 1.024]
assay-system: cool season plant species
Herbicidal activity (0-100 scale) ALOMY: 70
--
molecule: Cc1nn(C)c(=O)c(-c2c(F)ccc(Cl)c2CCc2ccc(F)cc2)c1O [Compound 1.048]
assay-system: cool season plant species
Herbicidal activity (0-100 scale) ALOMY: 90
